# TEST TARGET: EPHB1 (UniProt P54762)
# Sequence (P54762 whole entry, looked up): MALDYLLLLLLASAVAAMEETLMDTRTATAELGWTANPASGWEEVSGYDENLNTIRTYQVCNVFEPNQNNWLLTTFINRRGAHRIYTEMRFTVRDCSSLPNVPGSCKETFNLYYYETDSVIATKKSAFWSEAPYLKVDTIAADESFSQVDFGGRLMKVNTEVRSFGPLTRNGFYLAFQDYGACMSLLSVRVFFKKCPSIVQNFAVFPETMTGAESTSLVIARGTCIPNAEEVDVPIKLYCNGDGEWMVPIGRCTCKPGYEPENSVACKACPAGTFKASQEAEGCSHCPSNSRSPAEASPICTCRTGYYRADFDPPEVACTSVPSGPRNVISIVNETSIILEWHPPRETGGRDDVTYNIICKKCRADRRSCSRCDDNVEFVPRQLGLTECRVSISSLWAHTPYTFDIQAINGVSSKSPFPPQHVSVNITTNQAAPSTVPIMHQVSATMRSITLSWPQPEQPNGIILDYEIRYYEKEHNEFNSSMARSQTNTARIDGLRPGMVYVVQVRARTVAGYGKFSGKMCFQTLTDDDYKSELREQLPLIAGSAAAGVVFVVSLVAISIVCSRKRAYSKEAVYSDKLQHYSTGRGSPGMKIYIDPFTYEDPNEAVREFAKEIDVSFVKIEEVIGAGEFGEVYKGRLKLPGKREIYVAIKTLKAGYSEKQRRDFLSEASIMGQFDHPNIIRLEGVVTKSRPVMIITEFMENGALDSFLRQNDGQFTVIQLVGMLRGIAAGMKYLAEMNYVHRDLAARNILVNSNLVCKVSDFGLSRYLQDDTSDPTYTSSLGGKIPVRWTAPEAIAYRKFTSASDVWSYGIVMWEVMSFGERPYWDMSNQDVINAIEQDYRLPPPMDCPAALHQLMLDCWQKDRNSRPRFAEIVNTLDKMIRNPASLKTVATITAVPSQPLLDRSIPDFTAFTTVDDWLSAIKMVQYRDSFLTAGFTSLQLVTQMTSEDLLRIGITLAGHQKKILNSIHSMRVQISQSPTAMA
# PROTOCOL SUMMARY: phosphorylation enrichment, bacterial display (enrichment ratio); higher = better substrate or ligand; peptides without Tyr show the background
Use label 1 when the recorded phosphorylation enrichment is no lower than 0.5; use label 0 when it is lower.

Known results for sequences:
SEQUENCE CHAIN | DISCRETE LABEL
GEEIKYMLWLS [OTC_Y55] | label 1
ERWLKYFPNEQ [HS3ST5_Y244_I247N] | label 1
APSEFYDGDHD [HDAC3_Y414_N411S] | label 1
YCRIMYDIFPF [INTS13_Y67] | label 1
QYQLKYSETPF [SIX6OS1_Y129] | label 1

Assess whether reported phosphorylation enrichment for EFENSYIFDIN [GAB1_Y83] sits at 0.5 or higher. label 0

Assess whether reported phosphorylation enrichment for CTTIHYNFMCK [TP53_Y234_N239K_YF] sits at 0.5 or higher. label 0

Assess whether reported phosphorylation enrichment for AGQEGYDRLRP [RAC1_Y64_D63G] sits at 0.5 or higher. label 0

###

# TEST TARGET: Grb2 SH2 (UniProt P62993)
# Sequence (P62993 whole entry, looked up): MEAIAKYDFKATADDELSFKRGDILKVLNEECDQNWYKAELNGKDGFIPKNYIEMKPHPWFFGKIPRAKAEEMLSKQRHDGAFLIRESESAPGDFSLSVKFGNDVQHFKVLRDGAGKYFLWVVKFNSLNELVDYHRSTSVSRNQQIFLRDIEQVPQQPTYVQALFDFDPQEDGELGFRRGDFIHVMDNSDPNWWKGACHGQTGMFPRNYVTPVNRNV
# PROTOCOL SUMMARY: SH2 binding enrichment of the phosphorylated peptide, bacterial display (enrichment ratio); higher = better substrate or ligand; peptides without Tyr show the background
Recorded SH2 binding enrichment for the following sequences
The reply should be a number, written without any unit.

SEQUENCE CHAIN | TEST TARGET | MEASURED ATTRIBUTE | MEASURED RESULT
LDTSQYFRLFN [CPT2_Y217_M214T] | Grb2 SH2 (UniProt P62993) | SH2 binding enrichment | 0.96
MGRVNYGAYIN [GLB1_Y485] | Grb2 SH2 (UniProt P62993) | SH2 binding enrichment | 4.77
RRGMPYGGLGD [TGM1_Y312_R315L] | Grb2 SH2 (UniProt P62993) | SH2 binding enrichment | 0.712

SH2 binding enrichment reading for "GYIISYREEEQ" : 0.857

SH2 binding enrichment reading for VDDEIYFFRKP [PBRM1_Y1289_YF] : 0.75

SH2 binding enrichment reading for TPTYPYLLPKS [PLD2_Y580] : 0.768

###

# Tested on: c-Abl (mouse)
# PROTOCOL SUMMARY: phosphorylation enrichment, bacterial display (enrichment ratio); higher = better substrate or ligand; peptides without Tyr show the background
Bucketed by reported phosphorylation enrichment, buckets being LOW: < 0.6; MID: ≥ 0.6 and < 0.8; HIGH: ≥ 0.8

Known results for sequences:
SEQUENCE CHAIN | DISCRETE LABEL
HNLYSYPTKYE [MYO3A_Y1396_H1400Y] | HIGH
NCFKYYMSDDI [ATRX_Y204] | HIGH

Category of WSQAMYPDLGP [STARD8_Y330_R327Q] , please. MID

Category of PELINYHQPNS [BTK_Y361_H364P] , please. LOW

Category of AKKKMYSHKTK [AGXT_Y231_R233H] , please. HIGH

###

# TEST TARGET: Grb2 SH2 (UniProt P62993)
# PROTOCOL SUMMARY: SH2 binding enrichment of the phosphorylated peptide, bacterial display (enrichment ratio); higher = better substrate or ligand; peptides without Tyr show the background
MEASURED ATTRIBUTE: SH2 binding enrichment
The reply should be a number, written without any unit.

Example results:
SEQUENCE CHAIN | SH2 binding enrichment
EVESPYEVRDF [GIGYF2_Y1168_H1171R_YF] | 0.888
QAIDEYEKWLE [MAP9_Y603_N601D] | 0.757
AESPEYVHMFT [FAM111A_Y511_YF] | 0.878
PELINYHQPNS [BTK_Y361_H364P] | 1.07
FTTIHYNFMCN [TP53_Y234_C229Y_YF] | 1.08

SH2 binding enrichment reading for SLDHPYEKPRK [INAVA_Y333] : 0.852

SH2 binding enrichment reading for KNNSIYVVANI [VNN1_Y134] : 1.08

SH2 binding enrichment reading for AGIENYTSRFG [NKD2_Y256] : 0.767

SH2 binding enrichment reading for YRRITYHNWRH [PDE6B_Y556] : 1.15

SH2 binding enrichment reading for DSGRDYVSQFE [APOA1_Y53] : 0.875

SH2 binding enrichment reading for ESPGLYGFLNV [BCR_Y910] : 0.822

SH2 binding enrichment reading for MQMEEYRGRVE [BTNL2_Y91_W94R] : 0.785

SH2 binding enrichment reading for LEAFQYIGESQ [MSH2_Y856_E853A] : 0.979

SH2 binding enrichment reading for GHLYAYDWIRI [BEST1_Y227_S231R] : 1.25
